A collection of compounds and their measured Population Hoechst High Intensity Objects (%)
# Test system: U2OS
# test.description: Multiplex assay against U2OS
# Type: toxicity, cell-based
# setup.conditions: human, 12 h, 1 µM, compound concentration 1 uM, replicate 2
value.kind: Population Hoechst High Intensity Objects (%)

compound	value.measured
COc1cc(Nc2ncc3c(n2)-c2ccc(Cl)cc2C(c2c(F)cccc2OC)=NC3)ccc1C(=O)O [ALISERTIB]	4%
Cc1cc(=O)n(C)c2cc(N3C(=O)CC[C@H](NS(=O)(=O)CC(C)C)[C@H]3c3ccc(Cl)cc3)ccc12	1%
Cn1cc(C(=O)OCC2CCN(CCNS(C)(=O)=O)CC2)c2ccccc21	0%
Cl.Cl.OCCOCCN1CCN(C(c2ccccc2)c2ccc(Cl)cc2)CC1 (stereo not drawn) [HYDROXYZINE HYDROCHLORIDE]	1%
CC(C)(C)c1ccc(CSc2cnn(C(C)(C)C)c(=O)c2Cl)cc1 [PYRIDABEN]	0%
COc1cc2nc(N3CCN(C(=O)c4ccco4)CC3)nc(N)c2cc1OC.Cl [PRAZOSIN HYDROCHLORIDE]	1%
COCCCN1CCC(NC(=O)c2cc(Cl)c(N)c3c2OCC3)CC1 [PRUCALOPRIDE]	0%
CCC(=O)OCC(=O)[C@@]1(OC(=O)CC)[C@@H](C)C[C@H]2[C@@H]3CCC4=CC(=O)C=C[C@]4(C)[C@@]3(Cl)[C@@H](O)C[C@@]21C [BECLOMETHASONE DIPROPIONATE]	0%

====

# Test system: HEK-293T
# test.description: Multiplex assay against HEK293T
# Type: toxicity, cell-based
# setup.conditions: human, 24 h, 1 µM, compound concentration 1 uM, replicate 1
Non-standard residues stand in square brackets, D forms with d. Residues, ends and D or L forms follow the SMILES beside them.
A collection of compounds and their measured Population Mitochondria Different-Phenotype (%)
value.kind: Population Mitochondria Different-Phenotype (%)

compound	value.measured
CC(C)C[C@@H]1NC(=O)[C@@H](C(C)C)NC(=O)[C@@H]2CCCN2C(=O)[C@@H](CC(=O)O)NC(=O)[C@@H](Cc2c[nH]c3ccccc23)NC1=O [BQ-123] (cyclo(L[dW][dD]P[dV]))	27%
CN1CCC(C(=O)c2cccc(NC(=O)c3c(F)cc(F)cc3F)n2)CC1	30%
CN1C[C@H](C(=O)N[C@]2(C)O[C@@]3(O)[C@@H]4CCCN4C(=O)[C@H](Cc4ccccc4)N3C2=O)C[C@@H]2c3cccc4[nH]cc(c34)C[C@H]21.CS(=O)(=O)O [DIHYDROERGOTAMINE MESYLATE]	28%
CC(F)(F)CN1CCOc2c(nn(-c3ccccc3Cl)c2-c2ccc(Cl)cc2)C1=O	22%
OCCCNc1cc(-c2ccnc(Nc3cccc(Cl)c3)n2)ccn1	80%
COc1ccc2[nH]c(I)c(CCNC(C)=O)c2c1	24%
COc1cc(Nc2ncc3c(n2)-c2ccc(Cl)cc2C(c2c(F)cccc2OC)=NC3)ccc1C(=O)O	25%

====

# Test system: U2OS
# test.description: Multiplex assay against U2OS
# Type: toxicity, cell-based
# setup.conditions: human, 12 h, 1 µM, compound concentration 1 uM, replicate 1
A collection of compounds and their measured Population Hoechst High Intensity Objects (%)
value.kind: Population Hoechst High Intensity Objects (%)

compound	value.measured
CCCCCCNC(=O)Nc1ccc(S(=O)(=O)Nc2ccc(CCNC[C@H](O)COc3ccc(O)cc3)cc2)cc1	4
OCCCNc1cc(-c2ccnc(Nc3cccc(Cl)c3)n2)ccn1	3
CC(C)C[C@H](CO)Nc1nc(S[C@@H](C)c2ccccc2)nc2nc(N)sc12	3
N[C@](CC1c2ccccc2Oc2ccccc21)(C(=O)O)[C@H]1C[C@@H]1C(=O)O	1
COc1ccc2[nH]c(I)c(CCNC(C)=O)c2c1	2
COc1cc(C(=O)N2CC[C@@H](O)[C@@H](N)C2)cc2nc(-c3cc4ccccc4n3CC3CC3)n(C)c12.Cl	4
CSc1nc(NC2CCCC2)c([N+](=O)[O-])c(NC2CCCC2)n1	2
CN1C[C@H](C(=O)N[C@]2(C)O[C@@]3(O)[C@@H]4CCCN4C(=O)[C@H](Cc4ccccc4)N3C2=O)C[C@@H]2c3cccc4[nH]cc(c34)C[C@H]21.CS(=O)(=O)O [DIHYDROERGOTAMINE MESYLATE]	1

====

A collection of compounds and their measured Population Mitotic Cells (%)
# System: Fibroblast
# test.description: Multiplex assay against human fibroblast
# Format: toxicity, cell-based
# setup.conditions: 12 h, 10 µM, compound concentration 10 uM, replicate 1
Non-standard residues stand in square brackets, D forms with d. Residues, ends and D or L forms follow the SMILES beside them.
value.kind: Population Mitotic Cells (%)

compound	unit.text	value.measured
COc1cc(Nc2ncc3c(n2)-c2ccc(Cl)cc2C(c2c(F)cccc2OC)=NC3)ccc1C(=O)O	%	43
CCCCC[C@H](O)/C=C/[C@H]1[C@H](O)CC(=O)[C@@H]1CCCCCCC(=O)O	%	63
CC(C)C[C@@H]1NC(=O)[C@@H](C(C)C)NC(=O)[C@@H]2CCCN2C(=O)[C@@H](CC(=O)O)NC(=O)[C@@H](Cc2c[nH]c3ccccc23)NC1=O [BQ-123] (cyclo(L[dW][dD]P[dV]))	%	52

====

# Tested on: U2OS
# test.description: Multiplex assay against U2OS
# Type: toxicity, cell-based
# setup.conditions: human, 24 h, 10 µM, compound concentration 10 uM, replicate 1
A collection of compounds and their measured Population Normal (%)
value.kind: Population Normal (%)

compound	value.measured
O=C(NCCNCC(O)COc1ccc(O)cc1)N1CCOCC1.O=C(NCCNCC(O)COc1ccc(O)cc1)N1CCOCC1.O=C(O)/C=C/C(=O)O (stereo not drawn) [XAMOTEROL FUMARATE]	98%
COc1c(Nc2ccc(S(C)(=O)=O)nc2C)ncnc1OC1CCN(C(=O)OC(C)C)CC1	93%
Cc1cc(O)c(-c2ccc([C@@H](C)CN(C)C)cc2)c2c1[nH]c(=O)c1sccc12	90%
CCc1nn2c(C)cc(C)nc2c1Cc1ccc(-c2nnc(C3CCNCC3)o2)cc1	96%
COc1ccc2[nH]c(I)c(CCNC(C)=O)c2c1	98%
CSc1nc(NC2CCCC2)c([N+](=O)[O-])c(NC2CCCC2)n1	97%
Nc1nc(-c2ccco2)c2cnn(Cc3ccccc3F)c2n1	94%
C=CCN1C[C@H](C(=O)N(CCCN(C)C)C(=O)NCC)C[C@@H]2c3cccc4[nH]cc(c34)C[C@H]21	96%
Cc1c(Cc2ccc3ccccc3n2)c2cc(F)ccc2n1CC(=O)O	98%
O=C(Nc1cc(-c2ccccc2)nn1-c1ccccc1F)c1ccc([N+](=O)[O-])cc1	98%
CN1CCC(C(=O)c2cccc(NC(=O)c3c(F)cc(F)cc3F)n2)CC1	97%
CN(C)C(=O)Cn1cc(-c2ccc(-c3nnc4ccccn34)cc2)cn1	97%
COc1cc(C(=O)N2CC[C@@H](O)[C@@H](N)C2)cc2nc(-c3cc4ccccc4n3CC3CC3)n(C)c12.Cl	95%
Cn1cc(C(=O)OCC2CCN(CCNS(C)(=O)=O)CC2)c2ccccc21	97%
O=c1ccc2ccc(OCCCCN3CCN(c4cccc5sccc45)CC3)cc2[nH]1	86%
CC(C)(O)C(=O)N1CCN(c2ccc(C(F)(F)F)c(C3=C(c4c[nH]c5ccccc45)C(=O)NC3=O)c2)CC1	93%
O=c1nc2[nH]c3ccccc3nc-2c(=O)[nH]1	99%
Cc1nn(C)c2nc(NNC(=O)Nc3cc(Cl)nc(Cl)c3)cc(C(C)C)c12	94%

====

A collection of molecules and their measured Population Pyknosed Nuclei (%)
# Tested on: Fibroblast
# test.description: Multiplex assay against human fibroblast
# Type: toxicity, cell-based
# setup.conditions: 12 h, 1 µM, compound concentration 1 uM, replicate 2
Non-standard residues stand in square brackets, D forms with d. Residues, ends and D or L forms follow the SMILES beside them.

molecule	experimental.system	Population Pyknosed Nuclei (%)
COCCCN1CCC(NC(=O)c2cc(Cl)c(N)c3c2OCC3)CC1 [PRUCALOPRIDE]	Fibroblast	20
CC(F)(F)CN1CCOc2c(nn(-c3ccccc3Cl)c2-c2ccc(Cl)cc2)C1=O	Fibroblast	25
S=C(NCCCc1c[nH]cn1)NCCCN(Cc1ccc(Cl)c(Cl)c1)c1ccc(Br)cn1	Fibroblast	18
CC(C)C[C@@H]1NC(=O)[C@@H](C(C)C)NC(=O)[C@@H]2CCCN2C(=O)[C@@H](CC(=O)O)NC(=O)[C@@H](Cc2c[nH]c3ccccc23)NC1=O [BQ-123] (cyclo(L[dW][dD]P[dV]))	Fibroblast	18

====

# Test system: Fibroblast
# test.description: Multiplex assay against human fibroblast
# Assay type: toxicity, cell-based
# setup.conditions: 24 h, 1 µM, compound concentration 1 uM, replicate 1
value.kind: Population Tubulin-Different-Phenotype (%)

molecule	value.measured
CCCCCCNC(=O)Nc1ccc(S(=O)(=O)Nc2ccc(CCNC[C@H](O)COc3ccc(O)cc3)cc2)cc1	27
COCCn1c(C)c(C)s/c1=N\C(=O)C1C(C)(C)C1(C)C	38
Cc1cc(=O)n(C)c2cc(N3C(=O)CC[C@H](NS(=O)(=O)CC(C)C)[C@H]3c3ccc(Cl)cc3)ccc12	24
CN1C[C@H](C(=O)N[C@]2(C)O[C@@]3(O)[C@@H]4CCCN4C(=O)[C@H](Cc4ccccc4)N3C2=O)C[C@@H]2c3cccc4[nH]cc(c34)C[C@H]21.CS(=O)(=O)O [DIHYDROERGOTAMINE MESYLATE]	18
